Tested on: Alopecurus myosuroides (ALOMY)
Run description: Post-emergence herbicidal activity, glasshouse pot test
Type: in vivo
Conditions used: Alopecurus myosuroides, 312 h, rate 250 g/ha, evaluated after 13 days, glasshouse, read-out: Post-emergence activity ALOMY (100=total damage to plant; 0=no damage to plant)
Mark label 1 only for pest or weed control at 250 g/ha values smaller than 90%; exact matches and larger values are label 0.

Illustrative cases are given below, each with its answer.
1) CCc1ccc(Oc2ccc([N+](=O)[O-])cn2)cc1C1=C(O)C(C)(C)OC(C)(C)C1=O | label 1
2) CCc1ccc(Oc2cnc3cc(Cl)ccc3n2)cc1C1=C(O)[C@H]2CC[C@H](C2)C1=O | label 0
3) CCc1ccc(Oc2cccc(F)n2)cc1C1=C(O)C(C)(C)OC(C)(C)C1=O | label 1
4) CCc1ccc(Oc2ccc(C(F)(F)F)cc2Br)cc1C1=C(O)C(C)(C)OC(C)(C)C1=O | label 0
5) CCc1ccc(Oc2ncc(C(F)(F)F)cc2F)cc1C1=C(O)C(C)(C)OC(C)(C)C1=O | label 0
6) CCc1ccc(Oc2ccc(Cl)c(C(F)(F)F)c2)cc1C1=C(O)C(C)(C)OC(C)(C)C1=O | label 1

-- ask Would you kindly verify if pest or weed control at 250 g/ha of CCc1ccc(Oc2ccc(F)cc2F)cc1C1=C(O)CCCC1=O is strictly less than 90%?
-- reply label 1

-- ask Would you kindly verify if pest or weed control at 250 g/ha of CCc1ccc(Oc2cnc3ccc(Br)cc3n2)cc1C1=C(O)CC(C)(C)CC1=O is strictly less than 90%?
-- reply label 0

-- ask Would you kindly verify if pest or weed control at 250 g/ha of CCc1ccc(Oc2ccc([N+](=O)[O-])c(Cl)c2)cc1C1=C(O)CC2(CCOCC2)CC1=O is strictly less than 90%?
-- reply label 1

-- ask Would you kindly verify if pest or weed control at 250 g/ha of CCc1ccc(Oc2ccc(Br)cc2)cc1C1=C(O)C(C)(C)OC(C)(C)C1=O is strictly less than 90%?
-- reply label 0

-- ask Would you kindly verify if pest or weed control at 250 g/ha of CCc1ccc(Oc2ccc(F)cc2Cl)cc1C1=C(O)CC(C)(C)CC1=O is strictly less than 90%?
-- reply label 1

-- ask Would you kindly verify if pest or weed control at 250 g/ha of CCc1ccc(Oc2ccc([N+](=O)[O-])cc2C(F)(F)F)cc1C1=C(O)CC(C)(C)CC1=O is strictly less than 90%?
-- reply label 1

-- ask Would you kindly verify if pest or weed control at 250 g/ha of CCc1ccc(Oc2cnc3cc(F)ccc3n2)cc1C1=C(O)CC2(CCOCC2)CC1=O is strictly less than 90%?
-- reply label 0

-- ask Would you kindly verify if pest or weed control at 250 g/ha of CCc1ccc(Oc2ccc(F)c(Cl)c2)cc1C1=C(O)CC(C)(C)CC1=O is strictly less than 90%?
-- reply label 1
